Just for reference, patent US20160083466A1 is where these values come from.

# Experimental target: T1, rat IL-25 expressed with a C-terminal myc-myc-hexahistidine tag (rat)
# T1 construct: also called Rat IL-25-MMH
# T1 chain: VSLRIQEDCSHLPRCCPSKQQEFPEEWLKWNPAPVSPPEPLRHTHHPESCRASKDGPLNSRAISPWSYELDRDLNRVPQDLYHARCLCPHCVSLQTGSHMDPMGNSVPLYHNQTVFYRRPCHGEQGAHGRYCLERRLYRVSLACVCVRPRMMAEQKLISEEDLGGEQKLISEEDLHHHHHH
# Assay remarks: SPR Biacore, antibody captured, 37C
Test readout: koff (s⁻¹)
# unit: s⁻¹ | format: bare number

Here are 2 binders together with their reported answers.
H4H10863P (antibody, human IgG4, V domains shown, H4H prefix = human IgG4 Fc) VH: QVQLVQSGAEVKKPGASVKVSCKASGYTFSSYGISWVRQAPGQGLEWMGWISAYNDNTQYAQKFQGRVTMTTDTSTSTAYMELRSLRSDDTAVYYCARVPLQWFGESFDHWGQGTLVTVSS VL: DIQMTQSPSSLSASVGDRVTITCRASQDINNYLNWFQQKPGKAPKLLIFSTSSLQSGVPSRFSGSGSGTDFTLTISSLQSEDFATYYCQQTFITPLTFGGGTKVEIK: 0.000341
H4H10876P (antibody, human IgG4, V domains shown, H4H prefix = human IgG4 Fc) VH: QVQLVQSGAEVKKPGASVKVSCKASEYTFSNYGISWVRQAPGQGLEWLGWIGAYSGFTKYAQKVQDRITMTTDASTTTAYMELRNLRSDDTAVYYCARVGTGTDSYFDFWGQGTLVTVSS VL: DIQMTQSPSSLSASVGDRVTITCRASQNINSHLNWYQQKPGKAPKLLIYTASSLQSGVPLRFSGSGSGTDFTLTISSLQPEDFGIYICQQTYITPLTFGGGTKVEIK: 0.000107

Below: the item to evaluate.
Need koff, item H4H10871P (antibody, human IgG4, V domains shown, H4H prefix = human IgG4 Fc) VH: QVQLVQSGAEVMKPGASVKVSCKSSDFAFTTYGISWVRQAPGQGLEWMGWISAYNGNTNYEQRFQGRITMTTDTSTTTVYMELRSLRSDDTAVYYCARDPDYCSSNTCSDAFDLWGQGTMVTVSS VL: DIQMTQSPSSLSASVRDRVTITCRASQGITNYLAWYQQKPGKVPKVLIYAASTLQSGVPSRFSGSGSGTEFTLAISSLQPEDVATYFCQQYGSAPWTFGQGTKVEIK
5.64e-05
